tested on: PC-3M; assay: Anticancer activity in human PC-3M cells expressing PTB/GFP fusion protein assessed as perinucleolar compartment disassembly and measured after 24 hrs by Hoechst 33342 staining based microscopic method; type: functional, cell-based; conditions: read-out: IC50
MEASURE_NAME: IC50

[[record]]
molecule = "COc1ccc(Cn2c(-c3ccccc3)c(-c3ccccc3)c3c(=N)n(CCO)cnc32)cc1"
experimental_value = "2.83 µM"

[[record]]
molecule = "COc1ccc(-c2c(-c3ccc(OC)cc3)n(Cc3ccccc3)c3ncn([C@@H]4CCCC[C@H]4O)c(=N)c23)cc1 (mixture of isomers)"
experimental_value = "> 20 µM"

[[record]]
molecule = "COc1ccc(-c2c(-c3ccc(OC)cc3)n(Cc3ccccc3)c3ncn(CC4CCOC4)c(=N)c23)cc1 (stereo not drawn)"
experimental_value = "> 20 µM"


Hello, I would appreciate it if you could give IC50 for each entry below.
1. N=c1c2c(-c3ccccc3)cn(Cc3ccccc3)c2ncn1CCO
2. N=c1c2c(-c3ccccc3)cn(Cc3ccccc3)c2ncn1Cc1ccco1
3. C[C@H]([C@@H](O)c1ccccc1)n1cnc2c(c(-c3ccccc3)c(-c3ccccc3)n2Cc2ccccc2)c1=N
4. COc1ccc(-c2c(-c3ccc(OC)cc3)n(Cc3ccccc3)c3ncn(CCCO)c(=N)c23)cc1

Reply:
1: > 20 µM; 2: > 20 µM; 3: > 20 µM; 4: > 20 µM

For the 8 molecules below, give their IC50 values.
1. N=c1c2c(-c3ccccc3)c(-c3ccccc3)n(CCc3ccccc3)c2ncn1CC1CCOCC1
2. N=c1c2c3c(n(CCc4ccccc4)c2ncn1[C@H]1CC[C@H](O)CC1)CCCC3
3. N=c1c2c(-c3ccccc3)c(-c3ccccc3)n(Cc3ccccc3)c2ncn1C1CCOCC1
4. CN(C)CCCn1cnc2c(c(-c3ccccc3)c(-c3ccccc3)n2CCc2ccccc2)c1=N
5. Cc1c(C)n(Cc2ccccc2)c2ncn(CCCO)c(=N)c12
6. CCO/C=N/c1c(C#N)c(-c2ccccc2)c(-c2ccccc2)n1Cc1ccccc1
7. CC[C@@]1(O)C(=O)OCc2c1cc1n(c2=O)Cc2cc3ccccc3nc2-1 [CAMPTOTHECIN]
8. COc1ccc(-c2c(-c3ccc(OC)cc3)n(Cc3ccccc3)c3ncn(CCO)c(=N)c23)cc1

Reply:
1: 10 µM; 2: > 20 µM; 3: 0.32 µM; 4: 12.6 µM; 5: > 20 µM; 6: > 20 µM; 7: 0.19 µM; 8: > 20 µM

State recorded IC50 for all listed molecules.
1. COc1ccc(CCn2cnc3c(c(-c4ccccc4)cn3Cc3ccccc3)c2=N)cc1OC
2. N=c1c2c(-c3ccc4c(c3)OCO4)c(-c3ccc4c(c3)OCO4)n(Cc3ccccc3)c2ncn1C1CCOCC1
3. N=c1c2c(-c3ccccc3)c(-c3ccccc3)n(Cc3ccccc3)c2ncn1CC1COC1

Reply:
1. > 20 µM
2. > 20 µM
3. > 20 µM
